B1: TPR t1 (parent)
chain: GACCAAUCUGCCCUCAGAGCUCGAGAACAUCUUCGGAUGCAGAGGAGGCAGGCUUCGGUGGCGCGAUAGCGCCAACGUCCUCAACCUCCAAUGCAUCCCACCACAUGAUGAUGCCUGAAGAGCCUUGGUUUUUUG

# Variants of: B1
# Protocol notes: polymerase ribozyme fitness, log enrichment relative to wild type (log ratio); higher = more active; in vitro selection for triplet polymerase activity
We use -1 as the dividing line for polymerase ribozyme fitness (log ratio): on or above the line is satisfied, below is not satisfied.

# example entries with known answers
> print(dat)
                    variant.annotation  class.assignment
1  G48A G52A G60A C73U C82G C88U C102G     not satisfied
2                           C73A A119G         satisfied
3                            A43U C70A     not satisfied
4                             A5U C86G     not satisfied
5                 C12U G42U A84C U116A     not satisfied
6                  C62U G63U U78G U81G     not satisfied

Form field: polymerase ribozyme fitness (log ratio) at least -1? Entry: A18U A29U U54G C89G C114G
not satisfied

Form field: polymerase ribozyme fitness (log ratio) at least -1? Entry: C3U C49A G120A
satisfied
